Here, each record is paired with measured Vmax data.
- Subject Of Test: asc-1 of mouse (co-expressed with 4F2hc of mouse) (Mus musculus, UniProt P63115)
- Construct: expressed in transfected cells; host or cells: Xenopus oocytes injected with cRNA
- Sequence (P63115 whole entry): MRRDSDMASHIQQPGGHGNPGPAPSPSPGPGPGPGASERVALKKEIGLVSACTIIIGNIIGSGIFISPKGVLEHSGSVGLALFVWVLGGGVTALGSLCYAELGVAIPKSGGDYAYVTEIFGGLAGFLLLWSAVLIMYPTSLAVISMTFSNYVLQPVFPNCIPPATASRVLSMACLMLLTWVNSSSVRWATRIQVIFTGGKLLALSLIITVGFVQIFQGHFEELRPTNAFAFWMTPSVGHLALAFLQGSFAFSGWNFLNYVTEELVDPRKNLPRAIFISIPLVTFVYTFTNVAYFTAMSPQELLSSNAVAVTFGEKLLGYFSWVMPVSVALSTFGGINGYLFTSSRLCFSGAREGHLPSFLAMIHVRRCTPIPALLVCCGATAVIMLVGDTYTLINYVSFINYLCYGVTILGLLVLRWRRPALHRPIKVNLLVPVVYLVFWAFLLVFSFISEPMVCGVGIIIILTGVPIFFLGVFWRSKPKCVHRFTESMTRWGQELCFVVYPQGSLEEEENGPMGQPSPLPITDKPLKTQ
- Sequence (P10852 whole entry partner): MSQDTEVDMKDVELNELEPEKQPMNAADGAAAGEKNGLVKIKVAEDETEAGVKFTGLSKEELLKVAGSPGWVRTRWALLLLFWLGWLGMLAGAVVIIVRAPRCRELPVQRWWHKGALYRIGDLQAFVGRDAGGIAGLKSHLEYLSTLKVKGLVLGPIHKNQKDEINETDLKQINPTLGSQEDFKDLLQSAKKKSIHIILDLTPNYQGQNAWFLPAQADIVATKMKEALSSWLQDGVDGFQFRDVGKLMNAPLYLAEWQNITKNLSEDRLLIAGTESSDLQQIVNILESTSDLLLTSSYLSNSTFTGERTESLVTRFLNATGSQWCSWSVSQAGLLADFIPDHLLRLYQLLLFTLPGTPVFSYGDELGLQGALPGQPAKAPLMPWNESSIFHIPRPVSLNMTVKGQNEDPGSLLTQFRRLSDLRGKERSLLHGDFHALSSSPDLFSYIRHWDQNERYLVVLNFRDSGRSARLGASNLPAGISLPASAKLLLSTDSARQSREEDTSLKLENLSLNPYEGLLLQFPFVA
- Procedure Details: Michaelis-Menten kinetic test of substrate incorporation by Xenopus oocytes co-expressing asc-1 and 4F2hc
- Type: cell-based
- Condition Description: ratio to the Vmax value for alanine (defined as 1.00)

Data request: asc-1 of mouse (co-expressed with 4F2hc of mouse) (Mus musculus, UniProt P63115) / Vmax / N[C@@H](Cc1c[nH]cn1)C(=O)O [L-Histidine] : value?
Data returned: 0.79

Data request: Then this compound: CC[C@H](C)[C@H](N)C(=O)O [L-Isoleucine]
Data returned: 1.33

Data request: Then this compound: N[C@@H](CS)C(=O)O [L-Cysteine]
Data returned: 0.82

// moving on: another record for Vmax
Data request: asc-1 of mouse (co-expressed with 4F2hc of mouse) (Mus musculus, UniProt P63115) / Vmax / NCC(=O)O [Glycine] : value?
Data returned: 0.89
